B1: HDV Ribozyme (parent)
chain: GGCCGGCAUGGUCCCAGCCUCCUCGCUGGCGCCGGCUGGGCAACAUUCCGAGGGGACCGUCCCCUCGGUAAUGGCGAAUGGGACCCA

- Variants of: B1
- protocolText: self-cleavage, relative activity (ratio to wild type); higher = more cleavage; co-transcriptional
Reported values of self-cleavage for individual entries

{"columns": ["var", "self-cleavage"],
 "data": [
  ["U12A G52C", 0.453],
  ["G80C", 0.187],
  ["G39A G54A", 0.54],
  ["C61G U65G", 0.72],
  ["G28C A70G", 0],
  ["U47C A87U", 0.746],
  ["G29C G35A", 0.104],
  ["U27C C66A", 0.59],
  ["C13A A16C", 0.748],
  ["A16C C30U", 0.449],
  ["G25A C49G", 0.0755],
  ["G29U G67C", 0.136],
  ["U27C G76U", 0.883],
  ["G1U C22A", 0.441],
  ["G5C U79C", 0.141],
  ["U37C G40C", 0.262],
  ["U9A C61G", 0.682],
  ["C63A G67U", 0.451],
  ["A78G A83G", 0.445],
  ["G11C G55C", 0.228],
  ["C13G A87C", 0],
  ["G59A C85G", 1.13],
  ["C32U A51G", 0.92],
  ["G6C C75G", 0.0536],
  ["G25A C57U", 0.232],
  ["U47G U60C", 0.767],
  ["C15A C75G", 0.142],
  ["C36U A87C", 0.778],
  ["A16G G50C", 0.95],
  ["A45C G76A", 0.869],
  ["A56U A87C", 0.963],
  ["C19G C66G", 0.141],
  ["C48A C75G", 0.142],
  ["U65G G74U", 0.424],
  ["G59C A77C", 0.101],
  ["A16U C49U", 0.918],
  ["G80C C85U", 0.194],
  ["C3G G76U", 0.926],
  ["G1A C84G", 0.0978],
  ["G52A G80C", 0.272],
  ["G6U G67A", 0.517],
  ["U23A G68C", 0.831],
  ["U46C C86A", 0.849],
  ["C33U C61U", 0.918],
  ["U9C C22U", 0.727],
  ["G55A G67U", 1.12],
  ["C30U C48G", 0.597],
  ["U9C U69A", 1.02],
  ["C26G A77U", 0.447],
  ["A8C C86A", 0.72],
  ["C15G C49A", 0.519],
  ["C18A A45U", 0.172],
  ["C33U C36G", 0.0665],
  ["G28U G80C", 0.0639],
  ["A43C A56G", 0.404],
  ["C49A A56C", 1.05],
  ["G2A G10C", 0.105],
  ["C32G C63A", 0],
  ["G6U A70U", 0.46],
  ["G11U G29A", 0.158],
  ["G2A G55U", 0.271],
  ["A70U C75U", 0.219],
  ["U37C G67A", 1],
  ["C18G A45C", 0],
  ["C3A C57A", 0.659],
  ["C32U G82A", 0.354],
  ["G1A A77U", 0],
  ["G17U U65G", 0.541],
  ["G5A G29C", 0.0755],
  ["G5U G55A", 0.467],
  ["G50U G67C", 0.617],
  ["C63A C84G", 0.759],
  ["U12A U60C", 0.391],
  ["G55C G81A", 0.496],
  ["G17A A83U", 0.565],
  ["C18U G40U", 0.314],
  ["C14G U69C", 0.519],
  ["A16G G76A", 1.07],
  ["U46C C61U", 0.796],
  ["A56C U69A", 0.776],
  ["C3A G25C", 0.0198],
  ["C7U C24A", 0.256],
  ["G29U C36G", 0.201],
  ["G52U G73C", 0.155],
  ["G54A U69G", 0.882],
  ["C24G G74U", 0.0554],
  ["A78U G80C", 0.174],
  ["G6C U9C", 0.391],
  ["G11A C24A", 0.126],
  ["G11C U79G", 0.0875],
  ["A56C C58A", 0.923]
]}
